Origin of the recorded values: patent US10329324B2

measured.on: human Granzyme B (hGzmB) (Homo sapiens)
Construct: purchased Froelich Lab, Northshore University Health Systems Research Institute, Evanston, Ill., USA
Sequence (P10144 21-247): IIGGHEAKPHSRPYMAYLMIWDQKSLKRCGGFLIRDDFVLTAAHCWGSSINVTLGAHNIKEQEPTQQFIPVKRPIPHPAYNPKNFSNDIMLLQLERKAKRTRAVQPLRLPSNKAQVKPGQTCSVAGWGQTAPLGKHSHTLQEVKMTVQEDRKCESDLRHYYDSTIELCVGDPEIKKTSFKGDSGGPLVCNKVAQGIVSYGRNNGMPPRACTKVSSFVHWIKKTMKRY
experimental.details: Human Granzyme B enzymatic inhibition assay (fluorogenic, kinetic)
Assay type: biochemical
condition.description: activity codes, Table 7; read-out: IC50 Activity Range
pIC50: −log10 of the molar value.
Reported pIC50 by item:

Here's what some known entries look like.
CC[C@H](C)[C@H](NC(=O)Cc1ccccc1)C(=O)N[C@@H](C)C(=O)N1c2ccccc2C[C@H]1C(=O)NCc1nn[nH]n1 | 5.00 to 6.00
CC[C@H](C)[C@H](NC(=O)Cc1ccncc1)C(=O)NCC(=O)N1c2ccccc2C[C@H]1C(=O)NCc1nn[nH]n1 | 6.00 to 7.00
CC[C@H](C)[C@H](NC(=O)C(C)CC(=O)O)C(=O)NCC(=O)N1c2ccccc2C[C@H]1C(=O)NCc1nn[nH]n1 (single isomer, unassigned) [Example A30-2] | > 7.00
CC(C)C[C@H](NC(=O)Cc1ccccc1)C(=O)NCC(=O)N1c2ccccc2C[C@H]1C(=O)NCc1nn[nH]n1 | 5.00 to 6.00
CC[C@H](C)[C@H](NC(=O)Cc1ccccc1)C(=O)NCC(=O)N1c2ccc(NCc3ccccc3)cc2C[C@H]1C(=O)NCc1nn[nH]n1 | < 5.00

Need pIC50, item CC[C@H](C)[C@H](NC(=O)/C=C\C(=O)O)C(=O)NCC(=O)N1c2ccccc2C[C@H]1C(=O)NCc1nn[nH]n1
> 7.00

Could you tell me which pIC50 is on file for C[C@@H](O)[C@H](NC(=O)Cc1ccccc1)C(=O)NCC(=O)N1c2ccccc2C[C@H]1C(=O)NCc1nn[nH]n1 ?
< 5.00

// lookup pIC50 for CC[C@H](C)[C@H](NC(=O)Cc1ccccc1)C(=O)NCC(=O)N1c2cc(OC)ccc2CC1C(=O)NCc1c[nH]nn1 (stereo partly drawn)
5.00 to 6.00

// pIC50 lookup, key: CC[C@H](C)[C@H](NC(=O)Cc1ccccc1)C(=O)NCC(=O)N1c2cc(N)ccc2C[C@H]1C(=O)NCc1nn[nH]n1
6.00 to 7.00

Given the molecule O=C(O)CCC(=O)N[C@H](C(=O)NCC(=O)N1c2ccccc2C[C@H]1C(=O)NCc1nn[nH]n1)c1ccccc1 , what is its reported pIC50?
6.00 to 7.00

Requested field: pIC50. Item: CC[C@H](C)[C@H](NC(=O)CCC(=O)O)C(=O)NCC(=O)N1c2ccccc2C[C@H]1C(=O)NCc1c[nH]nn1
> 7.00

----------
experimental.details: Kinetic solubility determination in PBS
Assay type: physicochemical
condition.description: phosphate buffered saline (PBS 1×), 21 °C, pH 7.4, aqueous buffer, kinetic from dmso stock, PBS 1X pH 7.4, 2.0% DMSO, 24 hour incubation at ambient temperature, read-out: Solubility in aqueous PBS Buffer (1X, pH 7.4)
Structures can show the parent of a compound that is named as a salt.
quantity.measured: solubility at 24 h

CC(C)[C@H](NC(=O)Cc1ccccc1)C(=O)NCC(=O)N1c2ccccc2C[C@H]1C(=O)NCc1nn[nH]n1 [Example C1] | > 150 µM
CC[C@H](C)[C@H](NC(=O)CCCC(=O)O)C(=O)NCC(=O)N1c2ccccc2C[C@H]1C(=O)NCc1nn[nH]n1 [Example A14] | 107 µM
CC[C@H](C)[C@H](NC(=O)Cc1ccccc1)C(=O)N[C@@H](CCC(=O)O)C(=O)N1c2ccccc2C[C@H]1C(=O)NCc1nn[nH]n1 [Example C13] | > 750 µM
CC[C@H](C)[C@H](NC(=O)Cc1ccncc1)C(=O)NCC(=O)N1c2ccccc2C[C@H]1C(=O)NCc1nn[nH]n1 [Example A2] | > 150 µM
CC[C@H](C)[C@H](NC(=O)Cc1cccnc1)C(=O)NCC(=O)N1c2ccccc2C[C@H]1C(=O)NCc1nn[nH]n1 [Example A3] | 139 µM

Given the entry CC[C@H](C)[C@H](NC(=O)Cc1ccc(N)cc1)C(=O)NCC(=O)N1c2ccccc2C[C@H]1C(=O)NCc1nn[nH]n1 [Example A8, Hydrochloride] , report its measured solubility at 24 h.
> 150 µM
